Collected IC50 values appear next to each entry.
Tested on: P388/ADR cell lines (overexpress the multidrug resistance pump MDR-1)
Assay Notes: Multidrug resistant cell assay, cell viability by ATP-lite
Format: cell-based, murine
Condition Details: Mus musculus, 72 h, multidrug resistant cells overexpressing MDR-1
Response body: numeric value in nM, unit text excluded.

The examples below pair each entry with its known result.
COc1ccc(N(C)c2nc(CNC(=O)OC(COC(C)=O)COC(C)=O)nc3ccccc23)cc1 ... 450
COc1ccc(N(C)c2nc(CNC(=O)[C@@H](C)NC(=O)OC(C)(C)C)nc3ccccc23)cc1 ... 680
COc1ccc(N(C)c2nc(N[C@@H](CO)c3ccccc3)nc3ccccc23)cc1 ... 3300
COc1ccc(N(C)c2nc(NCCNC(C)=O)nc3ccc(C)cc23)cc1 ... 2500
COc1ccc(N(C)c2nc(CNC(=O)OCc3ccccc3)nc3ccccc23)cc1 ... 27

Quick one: IC50 of COc1ccc(N(C)c2nc(N[C@@H](C)[C@H](O)c3ccccc3)nc3ccccc23)cc1 ? 1700

Returns the measured IC50 for the input molecule. Input: COc1ccc(N(C)c2nc(NCC(O)CNc3nc(N(C)c4ccc(OC)cc4)c4ccccc4n3)nc3ccccc23)cc1 880

For the molecule CCOCCOCCOCCOc1nc(N(C)c2ccc(OC)cc2)c2ccccc2n1 , what IC50 is on record? 520

* * *

Test system: P388 murine leukemia cell line
Assay Notes: P388 cytotoxicity, cellular viability by ATP-Lite
Assay type: cell-based
Condition Details: compound concentration required to inhibit growth by 50%; 72 hours; intracellular ATP
pIC50: −log10 of the molar value.
Decide using pIC50: a value greater than or equal to 6 is true (1), a smaller one is false (0).

COC(=O)NCCNc1nc(N(C)c2ccc(OC)c(OC)c2)c2ccccc2n1 [Example 21] ... true (1)
COc1ccc(N(C)c2nc(NCCNC(=O)OC(C)(C)C)nc3ccccc23)cc1OC [Example 14] ... true (1)
COc1ccc(N(C)c2nc(NCCOC(=O)[C@H](N)CCCCN)nc3ccccc23)cc1 [Example 15] ... true (1)
COc1ccc(N(C)c2nc(NCCNC(=O)OCc3ccccc3)nc3ccc(OC)cc23)cc1 [Example 17] ... false (0)

--- query ---
Item COc1ccc(N(C)c2nc(NCCNC(=O)OC(C)(C)C)nc3ccc(OC)cc23)cc1 [Example 16] with pIC50 of 6 or above? false (0)

* * *

Entries and their measured pIC50 follow.
Test system: P388/ADR cell lines (overexpress the multidrug resistance pump MDR-1)
Assay Notes: Multidrug resistant cell assay, cell viability by ATP-lite
Type: cell-based, murine
Condition Details: Mus musculus, 72 h, multidrug resistant cells overexpressing MDR-1
To interpret pIC50, take it as minus log10 of a concentration measured in moles per litre.

# annotated cases, reported pIC50 shown
COc1ccc(N(C)c2nc(CN(CCCO)Cc3nc(N(C)c4ccc(OC)cc4)c4ccccc4n3)nc3ccccc23)cc1 [Example 54] ... 7.12
CCOC(=O)C1C=CC(C)n2c(=O)n(CCNc3nc(N(C)c4ccc(OC)cc4)c4ccccc4n3)c(=O)n21 (stereo not drawn) [Example 6] ... 5.46
COc1ccc(N(C)c2nc(NCCOC(=O)[C@H](Cc3c[nH]c4ccccc34)NC(=O)OCc3ccccc3)nc3ccccc23)cc1 [Example 29] ... 7.40
COc1ccc(N(C)c2nc(NCCNC(=O)OC(C)(C)C)nc3ccc(OC)cc23)cc1 [Example 16] ... 5.47
COc1ccc(N(C)c2nc(CNS(=O)(=O)c3ccc(OC)cc3)nc3ccccc23)cc1 [Example 45] ... 5.74

Which value of pIC50 has been reported for COc1ccc(N(C)c2nc(N[C@@H](C)C(=O)O)nc3ccccc23)cc1 [Example 36] in the records? 6.15

// pIC50 lookup, key: COc1ccc(N(C)c2nc(CNC(=O)[C@H](CC(N)=O)NC(=O)OC(C)(C)C)nc3ccccc23)cc1 [Example 51] 6.01

Form field: reported pIC50 of COc1ccc(N(C)c2nc(NCCNC(=O)OC(C)(C)C)nc3ccccc23)cc1OC [Example 14] 6.47

Please look up its pIC50: COc1ccc(N(C)c2nc(NCCOC(=O)[C@H](N)CCCCN)nc3ccccc23)cc1 [Example 15] 7.48

Data request, read-out pIC50, for COc1ccc(N(C)c2nc(NCCOCCOCCN)nc3ccccc23)cc1 [Example 3] 5.70

Look up pIC50 for this compound: COc1ccc(N(C)c2nc(CNC(=O)OC(C)OC(=O)C(C)C)nc3ccccc23)cc1 (stereo not drawn) [Example 49] 7.89

For COC(=O)[C@H](Cc1ccc(O)cc1)Nc1nc(N(C)c2ccc(OC)cc2)c2ccccc2n1 [Example 34] , what is its reported pIC50? 7.37
